B1: Caulobacter ParB omega fusion; a variant is named by its letters at X, in order, B8GW30 (parent)
chain: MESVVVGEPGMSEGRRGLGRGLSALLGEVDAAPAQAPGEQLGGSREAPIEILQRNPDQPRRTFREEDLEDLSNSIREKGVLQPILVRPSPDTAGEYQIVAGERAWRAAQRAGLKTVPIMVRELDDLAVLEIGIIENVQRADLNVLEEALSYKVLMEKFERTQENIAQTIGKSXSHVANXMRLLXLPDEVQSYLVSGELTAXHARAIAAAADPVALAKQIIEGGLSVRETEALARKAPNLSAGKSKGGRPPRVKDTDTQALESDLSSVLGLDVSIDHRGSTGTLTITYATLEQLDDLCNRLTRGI

Variants of: B1
Experiment: one-hybrid fitness for binding parS DNA (scaled: cognate 1, non-cognate 0); higher = stronger binding
Settings: with parS DNA site
Whole data set: some 81,000 sequences, median “one-hybrid fitness for binding parS DNA” near -0.17, cut for the highest 2% near 0.51. The sample holds the highest values, similar sequences and a random draw of the others, so the mix is not that of the screen.
parameter-measured: one-hybrid fitness for binding parS DNA

mutation_label=DTTH parameter_measured="one-hybrid fitness for binding parS DNA" test_result="≤ 0.2"
mutation_label=RNGF parameter_measured="one-hybrid fitness for binding parS DNA" test_result="≤ 0.2"
mutation_label=RTKW parameter_measured="one-hybrid fitness for binding parS DNA" test_result=0.668
mutation_label=RLNK parameter_measured="one-hybrid fitness for binding parS DNA" test_result="≤ 0.2"
mutation_label=RLNE parameter_measured="one-hybrid fitness for binding parS DNA" test_result="≤ 0.2"
mutation_label=RLDC parameter_measured="one-hybrid fitness for binding parS DNA" test_result=0.938
mutation_label=QEEC parameter_measured="one-hybrid fitness for binding parS DNA" test_result="≤ 0.2"
mutation_label=YTIY parameter_measured="one-hybrid fitness for binding parS DNA" test_result="≤ 0.2"
mutation_label=RLDF parameter_measured="one-hybrid fitness for binding parS DNA" test_result=0.229
mutation_label=RCLD parameter_measured="one-hybrid fitness for binding parS DNA" test_result="≤ 0.2"
mutation_label=RNHY parameter_measured="one-hybrid fitness for binding parS DNA" test_result=0.361
mutation_label=RNCR parameter_measured="one-hybrid fitness for binding parS DNA" test_result="≤ 0.2"
mutation_label=RTYW parameter_measured="one-hybrid fitness for binding parS DNA" test_result=0.262
mutation_label=TNCY parameter_measured="one-hybrid fitness for binding parS DNA" test_result="≤ 0.2"
mutation_label=QYAK parameter_measured="one-hybrid fitness for binding parS DNA" test_result="≤ 0.2"
mutation_label=RNHC parameter_measured="one-hybrid fitness for binding parS DNA" test_result=0.798
mutation_label=RTVW parameter_measured="one-hybrid fitness for binding parS DNA" test_result=0.218
mutation_label=RNGC parameter_measured="one-hybrid fitness for binding parS DNA" test_result=0.769
mutation_label=RNCY parameter_measured="one-hybrid fitness for binding parS DNA" test_result=0.235
mutation_label=TTWY parameter_measured="one-hybrid fitness for binding parS DNA" test_result="≤ 0.2"
mutation_label=RNHQ parameter_measured="one-hybrid fitness for binding parS DNA" test_result="≤ 0.2"
mutation_label=CDYG parameter_measured="one-hybrid fitness for binding parS DNA" test_result="≤ 0.2"
